Numbers sourced from patent US20240360137A1.

Molecular target: CDK6/cyclinD3 (Homo sapiens, UniProt Q00534)
Assay: CDKi biochemical assay (TR-FRET, phosphorylation of S780 on RB1 peptide)
Conditions: CDK6/cyclinD3 10 pM, 1 mM ATP, 60 min at 25° C.
pIC50: −log10 of the molar value.
Catalogue of pIC50 readings, one per entry.
outcome_measure: pIC50

>  <compound>
Cc1c(-c2n[nH]cc2Nc2ncc3c(n2)N([C@@H]2CCC[C@@H](O)C2)C(=O)C32CC2)cnn1C [Example 37]

>  <subject_of_test>
CDK6/cyclinD3 (Homo sapiens, UniProt Q00534)

>  <meas_value>
≤ 5.00

$$$$
>  <compound>
O=C1N([C@@H]2CCC[C@@H](O)C2)c2nc(Nc3c[nH]nc3O[C@@H]3CCOC3)ncc2C12CC2 [Example 63]

>  <subject_of_test>
CDK6/cyclinD3 (Homo sapiens, UniProt Q00534)

>  <meas_value>
≤ 5.00

$$$$
>  <compound>
O=C1N([C@@H]2CCC[C@@H](O)C2)c2nc(Nc3c[nH]nc3-c3cnn4cccnc34)ncc2C12CC2 [Example 81]

>  <subject_of_test>
CDK6/cyclinD3 (Homo sapiens, UniProt Q00534)

>  <meas_value>
≤ 5.00

$$$$

###

Target: CDK1/CyclinB1 (Homo sapiens, UniProt P06493)
Test: CDKi biochemical assay (TR-FRET, phosphorylation of S780 on RB1 peptide)
Details: CDK1/CyclinB1 10 pM, 1 mM ATP, 60 min at 25° C.
Source text: […]
Catalogue of IC50 readings, one per entry.
outcome_measure: IC50

>  <mol_smiles>
COc1n[nH]cc1Nc1ncc2c(n1)N([C@@H]1CCCC[C@@H](O)C1)C(=O)C21CC1

>  <outcome_measure>
IC50

>  <meas_value>
≥ 10 µM

$$$$
>  <mol_smiles>
O=C1N([C@@H]2CCC[C@@H](O)C2)c2nc(Nc3c[nH]nc3-c3cnn4c3CCCC4)ncc2C12CC2

>  <outcome_measure>
IC50

>  <meas_value>
≥ 10 µM

$$$$
>  <mol_smiles>
COC(=O)c1n[nH]cc1Nc1ncc2c(n1)N([C@@H]1CCC[C@@H](O)C1)C(=O)C21CC1

>  <outcome_measure>
IC50

>  <meas_value>
≥ 10 µM

$$$$
>  <mol_smiles>
O=C1N([C@@H]2CCC[C@@H](O)C2)c2nc(Nc3c[nH]nc3-c3cccnc3)ncc2C12CC2

>  <outcome_measure>
IC50

>  <meas_value>
≥ 10 µM

$$$$
>  <mol_smiles>
CSc1n[nH]cc1Nc1ncc2c(n1)N([C@@H]1CCC[C@@H](O)C1)C(=O)C21CC1

>  <outcome_measure>
IC50

>  <meas_value>
5.32 µM

$$$$
>  <mol_smiles>
Cn1cc(Oc2n[nH]cc2Nc2ncc3c(n2)N([C@@H]2CCC[C@@H](O)C2)C(=O)C32CC2)cn1

>  <outcome_measure>
IC50

>  <meas_value>
3.16 µM

$$$$
>  <mol_smiles>
O=C1N([C@@H]2CCC[C@@H](O)C2)c2nc(Nc3c[nH]nc3-c3cnn4ccccc34)ncc2C12CC2

>  <outcome_measure>
IC50

>  <meas_value>
1.18 µM

$$$$

###

Biological target: CDK4/cyclinD1 (Homo sapiens, UniProt P11802)
Assay: CDKi biochemical assay (TR-FRET, phosphorylation of S780 on RB1 peptide)
Conditions: CDK4/cyclinD1 20 pM, 1 mM ATP, 60 min at 25° C.
pIC50: −log10 of the molar value.

>  <compound>
O=C1N([C@@H]2CCC[C@@H](O)C2)c2nc(Nc3c[nH]nc3O[C@@H]3CCOC3)ncc2C12CC2

>  <subject_of_test>
CDK4/cyclinD1 (Homo sapiens, UniProt P11802)

>  <qualifying_sign>
≤

>  <pIC50>
5.00

$$$$
>  <compound>
O=C1N([C@@H]2CCC[C@@H](O)C2)c2nc(Nc3c[nH]nc3OC3CCOCC3)ncc2C12CC2

>  <subject_of_test>
CDK4/cyclinD1 (Homo sapiens, UniProt P11802)

>  <qualifying_sign>
≤

>  <pIC50>
5.00

$$$$
>  <compound>
O=C1N([C@@H]2CCC[C@@H](O)C2)c2nc(Nc3c[nH]nc3OC3CN(CC(F)(F)F)C3)ncc2C12CC2

>  <subject_of_test>
CDK4/cyclinD1 (Homo sapiens, UniProt P11802)

>  <qualifying_sign>
≤

>  <pIC50>
5.00

$$$$
>  <compound>
Cn1ccc(-c2n[nH]cc2Nc2ncc3c(n2)N([C@@H]2CCC[C@@H](O)C2)C(=O)C32CC2)n1

>  <subject_of_test>
CDK4/cyclinD1 (Homo sapiens, UniProt P11802)

>  <qualifying_sign>
≤

>  <pIC50>
5.00

$$$$
>  <compound>
O=C1N([C@@H]2CCC[C@@H](O)C2)c2nc(Nc3c[nH]nc3C3CCCCO3)ncc2C12CC2 (stereo partly shown)

>  <subject_of_test>
CDK4/cyclinD1 (Homo sapiens, UniProt P11802)

>  <qualifying_sign>
≤

>  <pIC50>
5.00

$$$$
>  <compound>
CN1C[C@@H](F)[C@H](Oc2n[nH]cc2Nc2ncc3c(n2)N([C@@H]2CCC[C@@H](O)C2)C(=O)C32CC2)C1

>  <subject_of_test>
CDK4/cyclinD1 (Homo sapiens, UniProt P11802)

>  <qualifying_sign>
≤

>  <pIC50>
5.00

$$$$
>  <compound>
O=C1N([C@@H]2CCC[C@@H](O)C2)c2nc(Nc3c[nH]nc3-c3ccncc3)ncc2C12CC2

>  <subject_of_test>
CDK4/cyclinD1 (Homo sapiens, UniProt P11802)

>  <qualifying_sign>
≤

>  <pIC50>
5.00

$$$$
>  <compound>
O=C1N([C@@H]2CCC[C@@H](O)C2)c2nc(Nc3c[nH]nc3C3CC3)ncc2C12CC2

>  <subject_of_test>
CDK4/cyclinD1 (Homo sapiens, UniProt P11802)

>  <qualifying_sign>
≤

>  <pIC50>
5.00

$$$$
>  <compound>
O=C1N([C@@H]2CCC[C@@H](O)C2)c2nc(Nc3c[nH]nc3-c3cnn(C(F)F)c3)ncc2C12CC2

>  <subject_of_test>
CDK4/cyclinD1 (Homo sapiens, UniProt P11802)

>  <qualifying_sign>
=

>  <pIC50>
5.48

$$$$
>  <compound>
CSCc1n[nH]cc1Nc1ncc2c(n1)N([C@@H]1CCC[C@@H](O)C1)C(=O)C21CC1

>  <subject_of_test>
CDK4/cyclinD1 (Homo sapiens, UniProt P11802)

>  <qualifying_sign>
=

>  <pIC50>
5.38

$$$$
>  <compound>
COc1n[nH]cc1Nc1ncc2c(n1)N([C@@H]1CCC[C@@H](O)C1)C(=O)C21CC1

>  <subject_of_test>
CDK4/cyclinD1 (Homo sapiens, UniProt P11802)

>  <qualifying_sign>
=

>  <pIC50>
5.13

$$$$
>  <compound>
O=C1N([C@@H]2CCC[C@@H](O)C2)c2nc(Nc3c[nH]nc3OCC3(F)CC3)ncc2C12CC2

>  <subject_of_test>
CDK4/cyclinD1 (Homo sapiens, UniProt P11802)

>  <qualifying_sign>
=

>  <pIC50>
5.91

$$$$
>  <compound>
O=C1N([C@@H]2CCC[C@@H](O)C2)c2nc(Nc3c[nH]nc3-c3cnn4c3CCCC4)ncc2C12CC2

>  <subject_of_test>
CDK4/cyclinD1 (Homo sapiens, UniProt P11802)

>  <qualifying_sign>
≤

>  <pIC50>
5.00

$$$$
>  <compound>
O=C1N([C@@H]2CCC[C@@H](O)C2)c2nc(Nc3c[nH]nc3C#Cc3cccnc3)ncc2C12CC2

>  <subject_of_test>
CDK4/cyclinD1 (Homo sapiens, UniProt P11802)

>  <qualifying_sign>
≤

>  <pIC50>
5.00

$$$$
>  <compound>
O=C1N([C@@H]2CCC[C@@H](O)C2)c2nc(Nc3cnn4c3CNCC4)ncc2C12CC2

>  <subject_of_test>
CDK4/cyclinD1 (Homo sapiens, UniProt P11802)

>  <qualifying_sign>
≤

>  <pIC50>
5.00

$$$$
>  <compound>
O=C1N([C@@H]2CCC[C@@H](O)C2)c2nc(Nc3c[nH]nc3OC3CC(F)(F)C3)ncc2C12CC2

>  <subject_of_test>
CDK4/cyclinD1 (Homo sapiens, UniProt P11802)

>  <qualifying_sign>
=

>  <pIC50>
5.13

$$$$
>  <compound>
C[C@]1(O)C[C@H](COc2n[nH]cc2Nc2ncc3c(n2)N([C@@H]2CCC[C@@H](O)C2)C(=O)C32CC2)C1

>  <subject_of_test>
CDK4/cyclinD1 (Homo sapiens, UniProt P11802)

>  <qualifying_sign>
=

>  <pIC50>
5.16

$$$$
>  <compound>
O=C1N([C@@H]2CCC[C@@H](O)C2)c2nc(Nc3c[nH]nc3OC[C@@H]3CCOC3)ncc2C12CC2

>  <subject_of_test>
CDK4/cyclinD1 (Homo sapiens, UniProt P11802)

>  <qualifying_sign>
≤

>  <pIC50>
5.00

$$$$
>  <compound>
Cn1cc(Nc2ncc3c(n2)N([C@@H]2CCC[C@@H](O)C2)C(=O)C32CC2)cn1

>  <subject_of_test>
CDK4/cyclinD1 (Homo sapiens, UniProt P11802)

>  <qualifying_sign>
=

>  <pIC50>
6.40

$$$$
>  <compound>
O=C1N([C@@H]2CCC[C@@H](O)C2)c2nc(Nc3c[nH]nc3OCC3CC3)ncc2C12CC2

>  <subject_of_test>
CDK4/cyclinD1 (Homo sapiens, UniProt P11802)

>  <qualifying_sign>
=

>  <pIC50>
5.21

$$$$
>  <compound>
CC#Cc1n[nH]cc1Nc1ncc2c(n1)N([C@@H]1CCC[C@@H](O)C1)C(=O)C21CC1

>  <subject_of_test>
CDK4/cyclinD1 (Homo sapiens, UniProt P11802)

>  <qualifying_sign>
=

>  <pIC50>
5.02

$$$$
>  <compound>
O=C1N([C@@H]2CCC[C@@H](O)C2)c2nc(Nc3c[nH]nc3C3CCOC3)ncc2C12CC2 (stereo partly shown)

>  <subject_of_test>
CDK4/cyclinD1 (Homo sapiens, UniProt P11802)

>  <qualifying_sign>
≤

>  <pIC50>
5.00

$$$$
